Tested on: H9 (acute lymphoblastic leukemia, ALL)
assay: Leukemia cell growth inhibition, MTT, 72 h (Example 5)
Assay type: cell-based, human
condition-notes: Homo sapiens; 72 h, MTT
Field: IC50. Provide a value for each of the compounds that follow.
Field format: number, assumed µg/mL, no unit text.

Problem: Item: COc1ccc2cc1Oc1ccc(cc1)C[C@H]1c3cc(c(OC)cc3CCN1C)Oc1c(OC)c(OC)c(CN3CC=CC3)c3c1[C@H](C2)N(C)CC3 [BS-TE-329] Test system: H9 (acute lymphoblastic leukemia, ALL) Read-out: IC50 Value: ?
Result: 1.19

Problem: API: value(readout=IC50, system=H9 (acute lymphoblastic leukemia, ALL)) for record COc1ccc2cc1Oc1ccc(cc1)C[C@H]1c3cc(c(OC)cc3CCN1C)Oc1c(OC)c(OC)c(CN3CCN(c4ccccc4)CC3)c3c1[C@H](C2)N(C)CC3 [BS-TE-343]
Result: 1.62

Problem: API: value(readout= IC50, system= H9 (acute lymphoblastic leukemia, ALL), query= COc1ccc2cc1Oc1ccc(cc1)C[C@H]1c3cc(c(OC)cc3CCN1C)Oc1c(OC)c(OC)c(CN3CCC(N(C)C)CC3)c3c1[C@H](C2)N(C)CC3 [BS-TE-354] )
Result: 0.78

Problem: Item COc1ccc2cc1Oc1ccc(cc1)C[C@H]1c3cc(c(OC)cc3CCN1C)Oc1c(OC)c(OC)c(COCC3CCOC3)c3c1[C@H](C2)N(C)CC3 (stereo partly shown) [BS-TE-417] with H9 (acute lymphoblastic leukemia, ALL) - IC50?
Result: 2.03

Problem: State its IC50 on H9 (acute lymphoblastic leukemia, ALL): COCCCOCc1c2c3c(c(OC)c1OC)Oc1cc4c(cc1OC)CCN(C)[C@H]4Cc1ccc(cc1)Oc1cc(ccc1OC)C[C@@H]3N(C)CC2 [BS-TE-416]
Result: 2.31

Problem: Item: COc1ccc2cc1Oc1ccc(cc1)C[C@H]1c3cc(c(OC)cc3CCN1C)Oc1c(OC)c(OC)c(CN3CCC(C#N)CC3)c3c1[C@H](C2)N(C)CC3 [BS-TE-323] Test system: H9 (acute lymphoblastic leukemia, ALL) Read-out: IC50 Value: ?
Result: 0.95

Problem: What measured IC50 is associated with CNCc1c2c3c(c(OC)c1OC)Oc1cc4c(cc1OC)CCN(C)[C@H]4Cc1ccc(cc1)Oc1cc(ccc1OC)C[C@@H]3N(C)CC2 [BS-TE-326] on H9 (acute lymphoblastic leukemia, ALL)?
Result: 0.88

* * *

Provide the recorded IC50 for the entries that follow.
Tested on: A549 (human lung cancer)
assay: Solid tumor cell growth inhibition, MTT, 72 h (Example 7)
Format: cell-based
condition-notes: Homo sapiens; 72 h, MTT, A549
Express the result in µg/mL but write the number alone.

Problem: Given the molecule COc1ccc2cc1Oc1ccc(cc1)C[C@H]1c3cc(c(OC)cc3CCN1C)Oc1c(OC)c(OC)c(COCCn3ccnc3)c3c1[C@H](C2)N(C)CC3 , what is its reported IC50?
Result: 4.5

Problem: Which measured IC50 value corresponds to COc1ccc2cc1Oc1ccc(cc1)C[C@H]1c3cc(c(OC)cc3CCN1C)Oc1c(OC)c(OC)cc3c1[C@H](C2)N(C)CC3 [TTD, reference compound] ?
Result: 2.9

Problem: Any idea what its IC50 is? The molecule is COc1ccc2cc1Oc1ccc(cc1)C[C@H]1c3cc(c(OC)cc3CCN1C)Oc1c(OC)c(OC)c(CN3CCN(c4ccccc4)CC3)c3c1[C@H](C2)N(C)CC3
Result: 3.54

Problem: Requested field: IC50. Item: COc1ccc2cc1Oc1ccc(cc1)C[C@H]1c3cc(c(OC)cc3CCN1C)Oc1c(OC)c(OC)c(CN3CCCC3)c3c1[C@H](C2)N(C)CC3
Result: 1

Problem: Reported IC50, molecule COc1ccc2cc1Oc1ccc(cc1)C[C@H]1c3cc(c(OC)cc3CCN1C)Oc1c(OC)c(OC)c(CNCc3cccnc3)c3c1[C@H](C2)N(C)CC3 : ____
Result: 9.94

* * *

Hi there, I'd appreciate the recorded IC50 for every entry that follows.
System: MGC 803 (human gastric cancer cell)
assay: Solid tumor cell growth inhibition, MTT, 72 h (Example 7)
Assay type: cell-based
condition-notes: Homo sapiens
Kindly provide the numeric value in µg/mL only, without the unit symbol.

Problem: Recall the recorded IC50 for COc1ccc2cc1Oc1ccc(cc1)C[C@H]1c3cc(c(OC)cc3CCN1C)Oc1c(OC)c(OC)c(CN3CCN(C)CC3)c3c1[C@H](C2)N(C)CC3 with MGC 803 (human gastric cancer cell) and state it.
Result: 0.8

Problem: Which IC50 is reported with MGC 803 (human gastric cancer cell) for this entry: COc1ccc2cc1Oc1ccc(cc1)C[C@H]1c3cc(c(OC)cc3CCN1C)Oc1c(OC)c(OC)c(CN3CCCC(C)C3)c3c1[C@H](C2)N(C)CC3 (some centres unmarked) ?
Result: 0.9

Problem: GET /values?readout=IC50&system=MGC 803 (human gastric cancer cell)&item= COc1ccc2cc1Oc1ccc(cc1)C[C@H]1c3cc(c(OC)cc3CCN1C)Oc1c(OC)c(OC)c(COC(=O)c3cccs3)c3c1[C@H](C2)N(C)CC3
Result: 5.78

Problem: Value wanted: IC50 (MGC 803 (human gastric cancer cell)) of entry COc1ccc2cc1Oc1ccc(cc1)C[C@H]1c3cc(c(OC)cc3CCN1C)Oc1c(OC)c(OC)c(CN3CCOCC3)c3c1[C@H](C2)N(C)CC3
Result: 3.74

Problem: Form: Entry = COc1ccc2cc1Oc1ccc(cc1)C[C@H]1c3cc(c(OC)cc3CCN1C)Oc1c(OC)c(OC)c(CN3CCSCC3)c3c1[C@H](C2)N(C)CC3 | System = MGC 803 (human gastric cancer cell) | IC50 = ____
Result: 1.68

Problem: Given the entry COc1ccc2cc1Oc1ccc(cc1)C[C@H]1c3cc(c(OC)cc3CCN1C)Oc1c(OC)c(OC)c(CNC3CC3)c3c1[C@H](C2)N(C)CC3 , what IC50 was observed with MGC 803 (human gastric cancer cell)?
Result: 1.74

Problem: Request body: readout IC50, system MGC 803 (human gastric cancer cell), query COCc1c2c3c(c(OC)c1OC)Oc1cc4c(cc1OC)CCN(C)[C@H]4Cc1ccc(cc1)Oc1cc(ccc1OC)C[C@@H]3N(C)CC2 . Return the value.
Result: 5.01

Problem: Param readout= IC50; system= MGC 803 (human gastric cancer cell); entry= COc1ccc2cc1Oc1ccc(cc1)C[C@H]1c3cc(c(OC)cc3CCN1C)Oc1c(OC)c(OC)c(COC(=O)c3ccco3)c3c1[C@H](C2)N(C)CC3 ; returns value.
Result: 2.51

Problem: // fetch MGC 803 (human gastric cancer cell) IC50 for COc1ccc2cc1Oc1ccc(cc1)C[C@H]1c3cc(c(OC)cc3CCN1C)Oc1c(OC)c(OC)c(CNCC(C)O)c3c1[C@H](C2)N(C)CC3 (some centres unmarked)
Result: 3.63

Problem: Give recorded IC50 with MGC 803 (human gastric cancer cell) for the following molecule: COCC(C)OCc1c2c3c(c(OC)c1OC)Oc1cc4c(cc1OC)CCN(C)[C@H]4Cc1ccc(cc1)Oc1cc(ccc1OC)C[C@@H]3N(C)CC2 (some centres unmarked)
Result: 2.87

Problem: Return IC50 measured with MGC 803 (human gastric cancer cell) given this molecule: COc1ccc2cc1Oc1ccc(cc1)C[C@H]1c3cc(c(OC)cc3CCN1C)Oc1c(OC)c(OC)c(COC(C)=O)c3c1[C@H](C2)N(C)CC3
Result: 3.54

Problem: Notebook entry, MGC 803 (human gastric cancer cell) assay: IC50 of COc1ccc2cc1Oc1ccc(cc1)C[C@H]1c3cc(c(OC)cc3CCN1C)Oc1c(OC)c(OC)c(CN3CCN(CCO)CC3)c3c1[C@H](C2)N(C)CC3 = ?
Result: 2.22

Problem: Record lookup: for MGC 803 (human gastric cancer cell), what IC50 belongs to COc1ccc2cc1Oc1ccc(cc1)C[C@H]1c3cc(c(OC)cc3CCN1C)Oc1c(OC)c(OC)c(CN3CCN(c4ccccc4)CC3)c3c1[C@H](C2)N(C)CC3 ?
Result: 1.1

Problem: # query: IC50 | item COc1ccc2cc1Oc1ccc(cc1)C[C@H]1c3cc(c(OC)cc3CCN1C)Oc1c(OC)c(OC)c(CNCc3ccco3)c3c1[C@H](C2)N(C)CC3 | system: MGC 803 (human gastric cancer cell)
Result: 0.89

* * *

Tested on: MG63 (osteosarcoma)
assay: Solid tumor cell growth inhibition, MTT, 72 h (Example 7)
Assay type: cell-based, human
condition-notes: Homo sapiens; 72 h, MTT, MG-63
Assign IC90 to each entry below.
Quote the value and follow it with the unit of measurement.

Problem: Could you tell me which IC90 is on file for COc1ccc2cc1Oc1ccc(cc1)C[C@H]1c3cc(c(OC)cc3CCN1C)Oc1c(OC)c(OC)c(COCc3ccsc3)c3c1[C@H](C2)N(C)CC3 ?
Result: 4.75 µg/mL

Problem: Which IC90 is reported for this molecule? COc1ccc2cc1Oc1ccc(cc1)C[C@H]1c3cc(c(OC)cc3CCN1C)Oc1c(OC)c(OC)c(Cn3cccn3)c3c1[C@H](C2)N(C)CC3
Result: 4.38 µg/mL

Problem: So what's the measured IC90 for this one? COCCCOCc1c2c3c(c(OC)c1OC)Oc1cc4c(cc1OC)CCN(C)[C@H]4Cc1ccc(cc1)Oc1cc(ccc1OC)C[C@@H]3N(C)CC2
Result: 2.49 µg/mL

Problem: Look up IC90: COc1ccc2cc1Oc1ccc(cc1)C[C@H]1c3cc(c(OC)cc3CCN1C)Oc1c(OC)c(OC)c(COCc3cccnc3)c3c1[C@H](C2)N(C)CC3
Result: 3.07 µg/mL

Problem: Dear colleague, I am looking for the recorded IC90 of the following molecule: COc1ccc2cc1Oc1ccc(cc1)C[C@H]1c3cc(c(OC)cc3CCN1C)Oc1c(OC)c(OC)c(CN3CCCC3)c3c1[C@H](C2)N(C)CC3
Result: 2.05 µg/mL

Problem: Dear colleague, I am looking for the recorded IC90 of the following molecule: COc1ccc2cc1Oc1ccc(cc1)C[C@H]1c3cc(c(OC)cc3CCN1C)Oc1c(OC)c(OC)c(CNc3nccs3)c3c1[C@H](C2)N(C)CC3
Result: 2.18 µg/mL

Problem: Any idea what IC90 was measured for COc1ccc2cc1Oc1ccc(cc1)C[C@H]1c3cc(c(OC)cc3CCN1C)Oc1c(OC)c(OC)c(CN3CCOCC3)c3c1[C@H](C2)N(C)CC3 ?
Result: 2.32 µg/mL

Problem: Name the reported IC90 value associated with the molecule COc1ccc2cc1Oc1ccc(cc1)C[C@H]1c3cc(c(OC)cc3CCN1C)Oc1c(OC)c(OC)c(CN3CCCC(O)C3)c3c1[C@H](C2)N(C)CC3 (stereo partly drawn)
Result: 3.2 µg/mL

Problem: Name the recorded IC90 for COc1ccc2cc1Oc1ccc(cc1)C[C@H]1c3cc(c(OC)cc3CCN1C)Oc1c(OC)c(OC)c(CN(C)[C@@H](C)c3ccccc3)c3c1[C@H](C2)N(C)CC3 .
Result: 1.9 µg/mL

Problem: Bench note: what IC90 did COc1ccc2cc1Oc1ccc(cc1)C[C@H]1c3cc(c(OC)cc3CCN1C)Oc1c(OC)c(OC)c(CN3CCC(O)C3)c3c1[C@H](C2)N(C)CC3 (stereo partly drawn) show?
Result: 2.24 µg/mL

Problem: Need IC90, item COc1ccc2cc1Oc1ccc(cc1)C[C@H]1c3cc(c(OC)cc3CCN1C)Oc1c(OC)c(OC)c(CN3CCC(C#N)CC3)c3c1[C@H](C2)N(C)CC3
Result: 5.5 µg/mL

Problem: Endpoint output: IC90 of COc1ccc2cc1Oc1ccc(cc1)C[C@H]1c3cc(c(OC)cc3CCN1C)Oc1c(OC)c(OC)c(COCC3CCOC3)c3c1[C@H](C2)N(C)CC3 (stereo partly drawn) . Value?
Result: 3.66 µg/mL

Problem: Which IC90 value is on record for COCC(C)OCc1c2c3c(c(OC)c1OC)Oc1cc4c(cc1OC)CCN(C)[C@H]4Cc1ccc(cc1)Oc1cc(ccc1OC)C[C@@H]3N(C)CC2 (stereo partly drawn) ?
Result: 6.36 µg/mL

Problem: Value lookup for IC90; key = COc1ccc2cc1Oc1ccc(cc1)C[C@H]1c3cc(c(OC)cc3CCN1C)Oc1c(OC)c(OC)c(CN(C)C)c3c1[C@H](C2)N(C)CC3
Result: 9.8 µg/mL

Problem: What IC90 value was documented for this molecule, COc1ccc2cc1Oc1ccc(cc1)C[C@H]1c3cc(c(OC)cc3CCN1C)Oc1c(OC)c(OC)c(CN3CCN(C)CC3)c3c1[C@H](C2)N(C)CC3 ?
Result: 1.9 µg/mL
